Test details: in vivo
Condition summary: CR: 1CD BR, rat, po
Value kind: LD50 at 14 days

Give reported LD50 at 14 days value for CC(Cc1ccc(O)c(O)c1)C(C)Cc1ccc(O)c(O)c1 (stereo not shown) [NDGA, nordihydroguaiaretic acid]
> 5000 mg/kg

----------
Test details: in vivo
Condition summary: female, New Zealand white, rabbit, po
Value kind: LD50 at 14 days (mg/kg)
API: value field is a number in mg/kg; no unit string.

Provide only the value of recorded LD50 at 14 days for CC(Cc1ccc(O)c(O)c1)C(C)Cc1ccc(O)c(O)c1 (stereo not shown) [NDGA, nordihydroguaiaretic acid]
1650

----------
Test details: in vivo
Condition summary: male, New Zealand white, rabbit, po
Value kind: LD50 at 14 days (mg/kg)
Return type: number; implicit unit mg/kg.

Supply recorded LD50 at 14 days for CC(Cc1ccc(O)c(O)c1)C(C)Cc1ccc(O)c(O)c1 (stereo not shown) [NDGA, nordihydroguaiaretic acid] here.
2500

Data credit: patent US9381246B2
